Test system: Tumor cell line
assay-details: In vitro for median growth inhibitory concentration against prostate cancer cell lines
Type: functional
measurement-setup: Homo sapiens
Could you please report measured GI50 for the items listed next?
Answers are plain numbers, in µM.

Consider the reported GI50 for these compounds:
CN1CC2=C(OC(N)=C(C#N)C2c2cccs2)/C(=C/c2cccs2)C1 (centres undefined) ... 13.5
COc1ccc(/C=C2\CN(C)CC3=C2OC(N)=C(C#N)C3c2ccc(OC)cc2)cc1 (centres undefined) ... 79.4
CN1C/C(=C\c2cccs2)C(=O)/C(=C/c2cccs2)C1 ... 23.9

We next turn to a different compound, shown below.
Challenge: Tell me measured GI50 for Cc1ccc(/C=C2\CN(C)CC3=C2OC(N)=C(C#N)C3c2ccc(C)cc2)cc1 (centres undefined) please.
Response given: 29.4

* * *

Could you please report measured TGI for the items listed next?
Test system: Ovarian cancer cell line
assay-details: In vitro growth inhibitory concentration against ovarian cancer cell lines
Assay type: functional
measurement-setup: Homo sapiens
Give bare numbers, in µM.

Cc1ccc(/C=C2\CN(C)CC3=C2OC(N)=C(C#N)C3c2ccc(C)cc2)cc1 (stereo unspecified) ... 55.7
CN1CC2=C(OC(N)=C(C#N)C2c2cccs2)/C(=C/c2cccs2)C1 (stereo unspecified) ... 73.2
Cc1ccc(/C=C2\CN(C)CC3=C2N=C(S)NC3c2ccc(C)cc2)cc1 (stereo unspecified) ... 94

// each listed compound needs a value for TGI
1. CN1C/C(=C\c2cccs2)C(=O)/C(=C/c2cccs2)C1
2. COc1ccc(/C=C2\CN(C)CC3=C2N=C(S)NC3c2ccc(OC)cc2)cc1 (stereo unspecified)

Response given:
[81.4, 76.4]

* * *

assay-details: Therapeutic index (IC50/EC50) was determined
measurement-setup: read-out: TI50
property: selectivity ratio

Challenge: Tell me measured selectivity ratio for "CN1C/C(=C\c2ccncc2)C(=O)/C(=C/c2ccncc2)C1" please.
Response given: > 3.09

* * *

Test system: NSCLC
assay-details: In vitro growth inhibitory concentration against non-small-cell lung cancer
Type: functional
measurement-setup: Homo sapiens
property: TGI

Consider the reported TGI for these molecules:
CN1CC2=C(N=C(S)NC2c2cccs2)/C(=C/c2cccs2)C1 (stereo unspecified) ... > 100 µM
CN1C/C(=C\c2cccs2)C2=NN(C)C(c3cccs3)C2C1 (stereo unspecified) ... > 100 µM
COc1ccc(/C=C2\CN(C)Cc3c2nc(O)c(C#N)c3-c2ccc(OC)cc2)cc1 ... > 100 µM
COc1ccc(/C=C2\CN(C)CC3=C2N=C(S)NC3c2ccc(OC)cc2)cc1 (stereo unspecified) ... 93.6 µM
CN1C/C(=C\c2cccs2)C2=NN(c3ccccc3)C(c3cccs3)C2C1 (stereo unspecified) ... > 100 µM

We next turn to a different molecule, shown below.
Challenge: Fill: TGI (NSCLC) for this molecule CN1C/C(=C\c2cccs2)C(O)/C(=C/c2cccs2)C1 (stereo unspecified)
Response given: > 100 µM

* * *

System: Panel CNS (Carcinoma cell lines)
assay-details: In vitro median growth inhibitory concentration against CNS cancer cell lines
Format: functional
measurement-setup: Homo sapiens
Could you please report measured GI50 for the items listed next?
Answers are plain numbers, in µM.

// each listed molecule needs a value for GI50
1. COc1ccc(/C=C2\CN(C)Cc3c2nc(O)c(C#N)c3-c2ccc(OC)cc2)cc1
2. COc1ccc(/C=C2\CN(C)CC3=C2N=C(S)NC3c2ccc(OC)cc2)cc1 (centres undefined)

Response given:
44.9
30
